- assay-notes: SU-DIPG-VI glioma cell viability, MIPE4.0 library, CellTiter-Glo luminescence, qHTS (AID 1347066);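 note: cells exposed to compound for 48 hours before readout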
- condition-description: CellTiter-Glo ATP luminescence
Results filed as inconclusive are left out. Calls of active or inactive are those of the source. No cut-off is given here; in the data, nearly all actives have AC50 up to about 30 µM.
Answer with one of the outcomes given here: active, inactive

O=Nc1c(-c2c(O)[nH]c3cc(Br)ccc23)[nH]c2ccccc12
active
O=c1cc(-c2cccc3c2Sc2ccccc2S3)oc(N2CCOCC2)c1
inactive
CC(Oc1ccc(O)cc1)(P(=O)(O)O)P(=O)(O)O
inactive
Clc1ccc(-c2nc3sccn3c2/C=N/OCc2ccc(Cl)c(Cl)c2)cc1
inactive
CN(C)CCOc1ccc(/C(=C(/CCCl)c2ccccc2)c2ccccc2)cc1
inactive

Per the assay record, what outcome was assigned to `COC(=O)/C=C/C(=O)OC` ?
inactive

And then `CC(C)[C@H](CO)Nc1nc(Nc2cccc(Cl)c2)c2ncn(C(C)C)c2n1` , what is it?
active

Now consider `NC(=O)c1ccc2[nH]ccc2c1` and answer again.
inactive

Let us now turn to `FC(F)(F)c1ccc(/C=C/c2nc(COc3ccc(CCCCn4ccnn4)cc3)co2)cc1`
inactive

Also `Fc1ccc(Cl)cc1-c1nc(Nc2ccncc2)c2nccnc2n1` ?
inactive

Also check `Cc1cc2c(s1)Nc1ccccc1N=C2N1CCN(C)CC1`
inactive

Next up: CN1CCN2c3ncccc3Cc3ccccc3C2C1 (configuration not stated)
inactive

###

The reader will find reported log fold change Tl+ flux values listed item by item below.
- System: F380Y/beta2Delta
- assay-notes: modulators of BK channel variants, profiling panel, selectivity assay, cell-based, U2OS BacMam, thallium flux, beta subunits (AID 1259406);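 note: initial slope of Thallos dye fluorescence rise after thallium is added; log ratio against the mean of 0.3% DMSO vehicle wells on the same plate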
- condition-description: at 30 µM
I'd appreciate a reply containing only the number, no unit.

Worked examples follow.
NC(Cc1cc(I)c(Oc2ccc(O)c(I)c2)c(I)c1)C(=O)O (stereo not given)
0.058
Cc1oc(S(=O)(=O)N2CCOCC2)cc1C(=O)Nc1ccc(F)cc1
-0.0147
CCOC(=O)C(C)Oc1ccc(NS(=O)(=O)c2cc(OC)ccc2OC)cc1Cl (stereo not given)
-0.0957

Proceeding to the next compound to report its log fold change Tl+ flux.
For the compound `CCOC(=O)Cn1c(-c2c(Cl)cccc2Cl)noc1=O` , what log fold change Tl+ flux is on record?
-0.0091

###

- assay-notes: sensitizers of A549 cells to miR-34 induction, primary screen, imaging, A549 dox-inducible miR-34, nuclei and caspase counts (AID 1347080)
- condition-description: A549 miR-34 inducible, Hoechst nuclei count, 48 h; measured here: total cells without miR-34 induction
quantity-kind: cell count
Quick one: just the number, no unit, thanks!

Reference set (2 entries):
COc1cc([C@@H]2c3cc4c(cc3C(OC3O[C@@H]5COC(C)O[C@H]5[C@H](O)[C@H]3O)C3COC(=O)[C@@H]32)OCO4)cc(OC)c1O (some centres undefined)
3870
CN1C2CC(OC(=O)[C@H](CO)c3ccccc3)C[C@H]1[C@H]1OC21 (some centres undefined)
11600

If you can, please state the reported cell count value of `FC(F)(F)COCC(F)(F)F` .
11900

Same again, this time with `Cc1[nH]c(/C=C2\C(=O)Nc3ccc(S(=O)(=O)Cc4c(Cl)cccc4Cl)cc32)c(C)c1C(=O)N1CCC[C@@H]1CN1CCCC1`
5410
